test_system: recombinant human mPGES-1 (Homo sapiens, UniProt O14684)
Construct: made in house; host or cells: Rosetta E. coli (microsomal/membrane fraction)
Sequence (O14684 whole entry): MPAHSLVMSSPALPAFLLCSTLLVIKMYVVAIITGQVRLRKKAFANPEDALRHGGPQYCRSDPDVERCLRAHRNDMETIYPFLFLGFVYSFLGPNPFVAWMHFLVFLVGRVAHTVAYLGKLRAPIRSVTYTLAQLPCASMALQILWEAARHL
protocol_summary: mPGES-1 inhibition test (microsomes, PGH2 substrate, HTRF detection of PGE2)
Type: biochemical
condition_notes: inhibition of mPGES-1 at 10 μM
Method: Microsomes from Rosetta E. coli bacteria expressing recombinant human mPGES-1 is dissolved in 0.1 M KPi pH 7.4 buffer containing 2.5 mM GSH. 50 μl of the enzyme is subsequently dispensed in a 384-well plate. […] After over night incubation the fluorescence is measured by the use of an appropriate microplate reader. […] The extent of the specific FRET is measured as a ratio of the emission intensity at 665 nm vs. that at 620 nm. […]
recorded_endpoint: inhibition at 10 µM (%)
Record the value in %, omitting the unit from your answer.

Data point: `Cn1c(Nc2ccc(F)cc2C(F)(F)F)nc2cc(C(=O)Nc3ccc(Br)cc3)ccc21` ; inhibition at 10 µM = 99

Data point: `Cn1c(Nc2c(Cl)cccc2Cl)nc2cc(C(=O)NCC3CCC3)c(F)cc21` ; inhibition at 10 µM = 97

Data point: CC(C)Oc1cc2[nH]c(Nc3c(Cl)ccc(Cl)c3F)nc2cc1C(=O)NC1CCC(C(F)(F)F)CC1 (stereo not shown) ; inhibition at 10 µM = 100

Data point: `Cc1ccc(Cl)cc1NC(=O)c1ccc2[nH]c(Nc3c(Cl)cccc3Cl)nc2c1` ; inhibition at 10 µM = 96

Data point: `O=C(N[C@H]1CC[C@H](C(F)(F)F)CC1)c1cc2nc(Nc3c(Cl)ccc(Cl)c3F)[nH]c2cc1OCC(F)(F)F` ; inhibition at 10 µM = 97

Data point: `Cn1c(Nc2c(Cl)cccc2Cl)nc2cc(C(=O)NCC3CCCC3)ccc21` ; inhibition at 10 µM = 93

Data point: `CC(C)(C)[C@H]1CC[C@@H](NC(=O)c2cc3nc(Nc4c(Cl)cccc4Cl)[nH]c3cc2F)CC1` ; inhibition at 10 µM = 100

Data point: `Cc1cc(C(=O)Nc2ccc(Br)cc2)cc2nc(Nc3c(Cl)cccc3Cl)[nH]c12` ; inhibition at 10 µM = 89

Data point: CC1CC(NC(=O)c2ccc3[nH]c(Nc4c(Cl)cccc4Cl)nc3c2)CC(C)(C)C1 (stereo not shown) ; inhibition at 10 µM = 100

Data point: `Cc1cccnc1NC(=O)c1ccc2c(c1)nc(Nc1c(Cl)cccc1Cl)n2C` ; inhibition at 10 µM = 92

Data point: O=C(NC1CCc2ccccc2C1)c1cc2[nH]c(Nc3c(Cl)cccc3Cl)nc2cc1F (stereo not shown) ; inhibition at 10 µM = 100

Data point: `Cn1c(Nc2c(Cl)cccc2Cl)nc2cc(C(=O)Nc3cc(C(F)(F)F)ccn3)ccc21` ; inhibition at 10 µM = 100

Data point: `COc1cc2[nH]c(Nc3c(Cl)cccc3Cl)nc2cc1C(=O)NCc1ncccc1OC` ; inhibition at 10 µM = 98

Data point: `CCOc1cc2[nH]c(Nc3c(Cl)ccc(Cl)c3F)nc2cc1C(=O)NC1CCC(C)(C)CC1` ; inhibition at 10 µM = 94

Data point: `Cc1nc(NC(=O)c2ccc3[nH]c(Nc4c(Cl)cccc4Cl)nc3c2)sc1C` ; inhibition at 10 µM = 96

Data point: `O=C(Nc1ccc(Br)cc1)c1cc2[nH]c(Nc3c(Cl)cccc3Cl)nc2c(F)c1F` ; inhibition at 10 µM = 100
